- system tested: P. falciparum apicoplast DNA polymerase (Pf-apPOL) (Plasmodium falciparum, UniProt Q8ILY1)
- Sequence (Q8ILY1 entry or part of it): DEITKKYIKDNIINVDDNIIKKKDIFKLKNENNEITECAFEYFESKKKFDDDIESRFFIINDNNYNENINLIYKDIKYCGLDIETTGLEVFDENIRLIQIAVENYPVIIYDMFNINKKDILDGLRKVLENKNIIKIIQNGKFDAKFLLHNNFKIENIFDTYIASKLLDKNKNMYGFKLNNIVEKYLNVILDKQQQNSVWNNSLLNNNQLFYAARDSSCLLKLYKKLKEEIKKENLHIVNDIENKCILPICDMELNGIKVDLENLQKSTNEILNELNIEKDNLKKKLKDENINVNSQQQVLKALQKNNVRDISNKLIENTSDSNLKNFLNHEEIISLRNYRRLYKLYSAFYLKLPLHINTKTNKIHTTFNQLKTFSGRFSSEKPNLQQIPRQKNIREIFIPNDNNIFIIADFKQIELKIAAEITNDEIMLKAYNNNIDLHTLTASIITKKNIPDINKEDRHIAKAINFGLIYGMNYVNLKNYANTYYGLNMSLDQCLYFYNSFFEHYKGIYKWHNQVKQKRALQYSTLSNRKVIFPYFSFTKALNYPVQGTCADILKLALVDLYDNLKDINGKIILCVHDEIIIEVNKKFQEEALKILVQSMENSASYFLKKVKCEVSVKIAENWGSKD
- assay protocol: Fluorescence-based high-throughput DNA polymerase assay (molecular beacon), primary screen and dose-response;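 note: compound concentration given in µM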
- Format: biochemical
- condition notes: DRC-2, 40', concentration 10
- From the text: The HT assay employs a molecular beacon, a stem-loop DNA template with a Cy3 dye and the Black Hole Quencher on the 3′ and 5′ ends of the DNA, respectively. Pf-apPOL concentration is based on a calculated absorptivity of ε280 = 56750 M^−1 cm^−1. […] To identify apPOL inhibitors we utilised our previously developed high-throughput DNA polymerase assay. […] The assay accurately recapitulates the kinetic behaviour of apPOL, as measured through more conventional low-throughput gel-based assays. […]
Quick reference: % inhibition Apol 40' of the listed items.
State just the number; it will be interpreted in %.

Examples with answers:
>  <compound>
CS(=O)(=O)c1cccc(C(=O)Nc2nnc(-c3ccno3)o2)c1 [KU0171319]

>  <system tested>
P. falciparum apicoplast DNA polymerase (Pf-apPOL) (Plasmodium falciparum, UniProt Q8ILY1)

>  <% inhibition Apol 40' [%]>
13

$$$$
>  <compound>
O=C(Nc1ncc([N+](=O)[O-])s1)c1ccc2c(c1)C(=O)N(N1C(=O)c3ccccc3C1=O)C2=O [KU0026378]

>  <system tested>
P. falciparum apicoplast DNA polymerase (Pf-apPOL) (Plasmodium falciparum, UniProt Q8ILY1)

>  <% inhibition Apol 40' [%]>
26

$$$$
>  <compound>
O=C(O)C(=O)Nc1nc(-c2ccc3c(c2)OCCO3)cs1 [Molecule 82, OC(=O)C(=O)Nc1scc(n1)c1ccc2c(c1)OCCO2]

>  <system tested>
P. falciparum apicoplast DNA polymerase (Pf-apPOL) (Plasmodium falciparum, UniProt Q8ILY1)

>  <% inhibition Apol 40' [%]>
24

$$$$
>  <compound>
O=C(c1c[nH]c2ncccc12)N1CCCCCC1 [Molecule 51, O=C(c1c[nH]c2c1cccn2)N1CCCCCC1]

>  <system tested>
P. falciparum apicoplast DNA polymerase (Pf-apPOL) (Plasmodium falciparum, UniProt Q8ILY1)

>  <% inhibition Apol 40' [%]>
28

$$$$
>  <compound>
COc1ccccc1CCC(=O)N1CCc2c(nc3cc(-c4ccccc4)[nH]n3c2=O)C1 [Molecule 7]

>  <system tested>
P. falciparum apicoplast DNA polymerase (Pf-apPOL) (Plasmodium falciparum, UniProt Q8ILY1)

>  <% inhibition Apol 40' [%]>
57

$$$$

QUERY: Requested read-out: % inhibition Apol 40'. Entry: O=C(O)c1c(F)c(F)c(-c2c(F)c(F)c(C(=O)O)c(F)c2F)c(F)c1F [KU0008974]
RESULT: 23

QUERY: Requested read-out: % inhibition Apol 40'. Entry: O=C(O)CC1=NN(c2cccc([N+](=O)[O-])c2)C(=O)C1 [KU0100531]
RESULT: 32
